Consider the following IC50 values measured on Human PI3Kα (Homo sapiens, UniProt P42336).
Sequence (P42336 whole entry): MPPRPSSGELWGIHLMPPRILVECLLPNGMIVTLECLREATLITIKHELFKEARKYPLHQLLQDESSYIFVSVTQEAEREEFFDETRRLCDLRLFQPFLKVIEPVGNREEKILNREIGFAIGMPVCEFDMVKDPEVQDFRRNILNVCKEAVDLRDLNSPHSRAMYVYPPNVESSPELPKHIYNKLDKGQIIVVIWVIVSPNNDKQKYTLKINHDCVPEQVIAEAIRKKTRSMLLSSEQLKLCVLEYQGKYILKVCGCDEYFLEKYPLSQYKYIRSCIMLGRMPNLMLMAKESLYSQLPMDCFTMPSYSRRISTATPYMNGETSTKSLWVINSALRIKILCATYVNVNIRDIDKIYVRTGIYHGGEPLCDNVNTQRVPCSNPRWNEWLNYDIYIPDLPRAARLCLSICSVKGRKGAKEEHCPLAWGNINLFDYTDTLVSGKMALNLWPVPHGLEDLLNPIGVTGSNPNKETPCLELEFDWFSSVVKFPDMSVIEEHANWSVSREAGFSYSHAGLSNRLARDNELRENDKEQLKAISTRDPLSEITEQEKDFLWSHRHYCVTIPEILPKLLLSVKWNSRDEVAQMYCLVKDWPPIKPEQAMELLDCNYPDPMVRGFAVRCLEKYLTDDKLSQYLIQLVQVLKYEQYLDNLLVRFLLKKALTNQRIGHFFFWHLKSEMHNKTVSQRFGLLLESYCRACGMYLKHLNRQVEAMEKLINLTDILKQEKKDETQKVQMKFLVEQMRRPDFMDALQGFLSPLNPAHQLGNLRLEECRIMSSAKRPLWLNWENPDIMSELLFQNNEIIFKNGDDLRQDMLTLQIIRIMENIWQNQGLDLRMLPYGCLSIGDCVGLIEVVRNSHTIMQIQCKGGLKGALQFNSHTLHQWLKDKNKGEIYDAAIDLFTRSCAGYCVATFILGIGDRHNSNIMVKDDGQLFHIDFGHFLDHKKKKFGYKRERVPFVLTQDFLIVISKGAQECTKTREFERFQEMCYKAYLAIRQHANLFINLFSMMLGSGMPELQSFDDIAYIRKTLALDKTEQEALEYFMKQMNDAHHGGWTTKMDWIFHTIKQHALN
Sequence (P27986 whole entry partner): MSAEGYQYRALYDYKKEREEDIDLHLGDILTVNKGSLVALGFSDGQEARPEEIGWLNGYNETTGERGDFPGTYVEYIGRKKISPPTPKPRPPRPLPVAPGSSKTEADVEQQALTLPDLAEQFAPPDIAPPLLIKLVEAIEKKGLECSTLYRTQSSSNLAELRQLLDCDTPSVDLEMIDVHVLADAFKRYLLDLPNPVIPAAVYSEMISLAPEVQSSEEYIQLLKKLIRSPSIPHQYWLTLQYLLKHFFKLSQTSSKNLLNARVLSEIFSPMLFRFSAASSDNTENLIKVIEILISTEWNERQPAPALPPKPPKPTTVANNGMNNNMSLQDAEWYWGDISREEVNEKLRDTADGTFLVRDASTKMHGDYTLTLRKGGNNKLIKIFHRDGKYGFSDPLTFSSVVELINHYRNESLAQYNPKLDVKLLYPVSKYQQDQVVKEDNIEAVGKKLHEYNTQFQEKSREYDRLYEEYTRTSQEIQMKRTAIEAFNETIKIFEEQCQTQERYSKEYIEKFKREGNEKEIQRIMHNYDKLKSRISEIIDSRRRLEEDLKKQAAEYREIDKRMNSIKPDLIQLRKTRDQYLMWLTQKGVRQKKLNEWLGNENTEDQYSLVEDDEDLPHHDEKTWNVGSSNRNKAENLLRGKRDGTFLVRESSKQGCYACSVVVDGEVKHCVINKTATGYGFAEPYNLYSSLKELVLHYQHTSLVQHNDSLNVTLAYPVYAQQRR

Here are 3 compounds together with their reported answers.
{"compound": "COC(=O)N[C@H]1CCN([C@H]2CC[C@H](Oc3cc(-n4c(C(F)F)nc5ccccc54)nc(N4CCOCC4)n3)CC2)C1=O", "result": "> 10 µM"}
{"compound": "CC(C)(C)OC(=O)N1CCC(N2CCC(CNc3nc(N4CCOCC4)cc(-n4c(C(F)F)nc5ccccc54)n3)CC2)CC1", "result": "> 3 µM"}
{"compound": "CCOC(=O)N[C@@H]1CCN([C@H]2CC[C@H](Oc3cc(-n4c(C(F)F)nc5ccccc54)nc(N4CCOCC4)n3)CC2)C1=O", "result": "> 10 µM"}

Batch of 2 compounds: report IC50 for each.
1. OC1CCC(N2CCC(CNc3nc(N4CCOCC4)cc(-n4c(C(F)F)nc5ccccc54)n3)CC2)CC1 (centres unmarked)
2. CN(C)CC(=O)N[C@H]1CCC[C@H](Nc2cc(-n3c(C(F)F)nc4ccccc43)nc(N3CCOCC3)n2)C1

stdout:
1: > 3 µM; 2: > 3 µM

Numbers sourced from patent US8912180B2.
